TGT: truncate haemagglutinin-neuraminidase (HN) 49–577 aa of NDV La Sota fused to the yeast GAL4 DNA-BD (Newcastle disease virus, La Sota, UniProt O90340, strain)
MEASUREMENT_PROTOCOL: two-hybrid
STATED_CONDITIONS: partners not purified
ENDPOINT_LABEL: binding result

{"columns": ["BINDER", "OBSERVED_VALUE"],
 "data": [
  ["VHH7 fused to the Gal4 activation domain (pAD-VHH, pGADT7-Rec) (VHH) VHH: QVQLVESGGGLVQPGGSLRLSCAASGFAFSIYAMSWVRQAPGKGLEWVSAINSGGGSEYYADSVKGRFTISRDNAKNTLYLQLNSLKTEDTAMYYCAKSTSDCSYSDPWCYALADFGYWGQGTQVTVSS", "binds"],
  ["VHH5 fused to the Gal4 activation domain (pAD-VHH, pGADT7-Rec) (VHH) VHH: QVQLVESGGGLVQPGGSLKLSCAASGFTFSTNAMSWFRPAPGKERKWVSAIDAGGGNTYYDDSMKGRFTISKDNAKNTLYLQLNSLKSEDTAMYYCAKDPATVPTNRGQGTLVTVSS", "binds"]
]}
